meta.source: PubChem BioAssay

run.description: antimalarial activity against Dd2 strain (AID 2302);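 note: 0% = DMSO untreated growth and 100% = chloroquine plus artemisinin killed control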
setup.conditions: P. falciparum Dd2 in RBCs, LDH growth readout, 72 h; at 2 µM; stronger effect = higher value

compound	value.unit	growth inhibition
O=C(Nc1ccc(F)c(F)c1)c1ccc(CN2CCCN(Cc3cccc(O)c3)CC2)cc1	%	57
CCOc1ncccc1CN1CCC(N2CCc3cc(NC(=O)c4ccco4)ccc32)C1 (stereo unspecified)	%	94
COc1ccc2nccc([C@@H](O)CN3CCC(NCc4ccc5c(c4)oc(=S)n5C)CC3)c2c1	%	68
CCCCCC1c2[nH]c3ccccc3c2CCN1C(=O)OCc1ccccc1 (stereo unspecified)	%	68
Nc1ccc(-c2nc3ccc(-c4ccc5nc(-c6ccc(N)cc6)[nH]c5c4)cc3[nH]2)cc1	%	96
COc1ccc(Nc2nccc(N3CCC(NC(=O)Nc4cccc(OC)c4)C3)n2)cc1 (stereo unspecified)	%	48
